# SYSTEM: human GnRH receptor (Homo sapiens)
# Construct: membrane preparation
# Sequence (P30968 whole entry): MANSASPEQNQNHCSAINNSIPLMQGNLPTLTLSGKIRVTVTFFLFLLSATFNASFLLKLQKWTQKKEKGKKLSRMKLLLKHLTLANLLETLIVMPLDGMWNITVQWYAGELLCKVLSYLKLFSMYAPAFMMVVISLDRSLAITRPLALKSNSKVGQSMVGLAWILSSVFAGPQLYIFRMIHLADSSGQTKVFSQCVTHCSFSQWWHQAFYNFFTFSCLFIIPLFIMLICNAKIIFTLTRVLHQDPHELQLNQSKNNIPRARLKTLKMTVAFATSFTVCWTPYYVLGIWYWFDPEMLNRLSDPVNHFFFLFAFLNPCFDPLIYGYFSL
# ASSAY INFO: GnRH radioligand binding assay
# DETAILS: 125I-LHRH-D-Trp6 radioligand; COS-1 cell membranes containing human GnRH receptors; 2 h at 4 C
QUANTITY KIND: IC50

Consider the following illustrative entries.
O=C1N(CCN2CCOCC2)C(=O)[C@]23CNC[C@H]2C[C@H](c2cnc4ccccc4c2)N13 (relative stereo): ~270 nM
CCOc1cc(CN2C[C@@H]3C[C@@H](c4ccc(N(C)C)c5ccccc45)N4C(=O)N(CCN5CCOCC5)C(=O)[C@@]34C2)ccc1O (relative stereo): 800 nM
COc1ccc(CN2C[C@@H]3C[C@@H](c4ccc(N(C)C)c5ccccc45)N4C(=O)N(CCN5CCOCC5)C(=O)[C@@]34C2)cc1O (relative stereo): 35 nM
COc1cc(CN2C[C@@H]3C[C@@H](c4ccc(N(C)C)c5ccccc45)N4C(=O)N(CCN5CCOCC5)C(=O)[C@@]34C2)c(Br)c(Br)c1O (relative stereo): 280 nM
COc1ccc(CN2C[C@@H]3C[C@@H](c4ccc(N(C)C)c5ccccc45)N4C(=O)N(CCc5ccncc5)C(=O)[C@@]34C2)cc1O (relative stereo): ~385 nM

Q: Reported IC50, compound COc1ccc(CN2C[C@H]3C[C@H](c4ccnc5ccccc45)N4C(=O)N(CCN5CCOCC5)C(=O)[C@]34C2)cc1O (relative stereo) : ____
A: ~1500 nM

Q: Request: COc1ccc(CN2C[C@H]3C[C@H](c4ccc(N(C)C)c5ccccc45)N4C(=O)N(CCN5CCOCC5)C(=O)[C@]34C2)cc1NC(C)=O (relative stereo)
A: ~21 nM

Q: Request: COc1ccc(CN2C[C@@H]3C[C@@H](c4ccc(N(C)C)c5ccccc45)N4C(=O)N(CCN5CCNCC5)C(=O)[C@@]34C2)cc1O (relative stereo)
A: ~1500 nM

Q: Request: COc1ccc(CN2C[C@@H]3C[C@@H](c4ccc(N(C)C)cc4)N4C(=O)N(CCN5CCOCC5)C(=O)[C@@]34C2)cc1O (relative stereo)
A: ~160 nM

// data source = patent US20020065309A1
